TEST_METHOD_NOTES: gradient 5% acetonitrile 3 min, to 50% in 2 min, to 85% in 15 min, held 3 min, 100 µL/min
MEASUREMENT_CONTEXT: column: Zorbax Extend-C18 2.1 x 50 mm; eluents: water / acetonitrile, 0.1% formic acid
Catalogue of compounds with associated RP-LC retention time
MEASURED_ENDPOINT: RP-LC retention time (s)

COMPOUND	UNIT_ABBREV	READOUT_VALUE
Cc1ccc(F)cc1NS(=O)(=O)c1cc2n(c1)CCN(C(C)C)C2=O	s	783
O=C(CN1C(=O)C2CCCCN2c2ccc(S(=O)(=O)N3CCCC3)cc21)NCc1ccccc1 (centres undefined)	s	921
Cc1cc(C(=O)N2C[C@@H](C)[C@H](c3nc(-c4ccccc4)no3)C2)n[nH]1	s	804
CN1CCC(N2CCN(S(=O)(=O)c3ccccc3Cl)CC2)C1=O (centres undefined)	s	570
O=C(Cn1cccc(-c2nc(-c3ccccc3)no2)c1=O)Nc1cccc(Br)c1	s	940
Cc1ccc(NC(=O)C2CC(=O)N(c3n[nH]c4cccc(F)c34)C2)cc1 (centres undefined)	s	708
CCOc1ccc(CNC(=O)c2c(C)oc3c2C2=NCCN2C=N3)cc1	s	668
COc1ccc(OC)c(-c2cn3ccn(-c4ccc(Cl)cc4)c(=O)c3n2)c1	s	887
Cc1ccc(S(=O)Cc2ccc(C(=O)N3CCN(c4ccccn4)CC3)o2)cc1 (centres undefined)	s	587
Cc1ccc(-c2ccc(N3CCCC(C(=O)Nc4ccc5c(c4)OCO5)C3)nn2)cc1 (centres undefined)	s	753
Cn1ccc2cc(S(=O)(=O)N3CCC(C(=O)N4CCN(c5ncccn5)CC4)CC3)ccc21	s	821
Cc1noc(-c2cccc(OC3CN(C(=O)NCCc4ccccc4)C3)c2)n1	s	879
Cc1cccc(S(=O)(=O)N(C)CC2(C)CCOCC2)c1	s	918
CCOC(=O)c1c2c3c(cccc3n(C)c1=O)C(=O)c1ccccc1-2	s	907

---

TEST_METHOD_NOTES: gradient 5% acetonitrile 3 min, to 50% in 2 min, to 85% in 15 min, held 3 min, 100 µL/min
MEASUREMENT_CONTEXT: column: Zorbax Extend-C18 2.1 x 50 mm; eluents: water / acetonitrile, 0.1% formic acid

MOLECULE	RP-LC retention time / s
CN(C)c1ccc(CN2CCc3nc(N4CCN(c5ccccc5F)CC4)ncc3C2)cc1	807
CC(C)N1CCN(Cc2ccc(C(=O)NCc3ccccc3)cc2)C(=O)C1=O	685
COc1ccc(-c2cc3c(=O)n(CC(=O)NCC4CCCO4)ncn3n2)cc1 (stereo not drawn)	720
CCOc1ccc(NC(=O)c2c(N3CCCC3=O)c3cc(OC)ccc3n2C)cc1	984
CC(C)(C)NC(=O)NCCC1CCN(S(=O)(=O)c2ccccc2)CC1	822
CCOc1ccc(-c2cc3c(=O)n(Cc4nc(-c5cccc(F)c5)no4)ccn3n2)cc1	1140
CCCc1ccc(S(=O)(=O)N2CCc3c(c(-c4nnc(-c5ccc(F)cc5)o4)nn3C)C2)cc1	1070
Cc1ccc(-c2cn3cccnc3n2)cc1NC(=O)CCC1CCCCC1	789
CC(=O)N1c2ccc(S(=O)(=O)N3CCCC3)cc2CC1C(=O)NCCc1ccc(C)cc1 (stereo not drawn)	797
O=C(Nc1nc(-c2ccc3ccccc3c2)cs1)c1ccc2c(c1)OCO2	1160
COc1cccc(CN2CCc3nn(C)c(=O)n3CC2)n1	544
Cc1csc(-c2ccc(N3CCN(C(=O)COc4ccc(F)cc4)CC3)nc2)n1	856
O=C(CN1CCCCC1c1nc(C2CC2)no1)Nc1ccccn1 (stereo not drawn)	734
COc1cccc(CNC2=NCCNC23CCN(S(=O)(=O)c2ccc(C)c(C)c2)CC3)c1	775
O=C(Nc1nnc(SCc2nnc(-c3ccc4c(c3)OCO4)o2)s1)C1CC1	750
COc1cccc(N2CCN(c3ccnc(SCC(=O)Nc4ccc(F)c(Cl)c4)n3)CC2)c1	806
Cc1ccc(CN2N=C(C(=O)N3CCOCC3)S(=O)(=O)c3cc(Cl)ccc32)cc1	896
COc1c(C)cnc(Cn2cnc3c(Cl)nc(N)nc32)c1C	638
CSc1ccc(NC(=O)c2cc3c(s2)CN(C2CC2)C3)cc1	644
Cc1nc(-c2csc(S(=O)(=O)N3CCC(C(=O)NC4CCCCCCC4)CC3)c2)no1	995
Cc1ccc(N2C(=O)C3N=NN(Cc4nc(-c5ccccc5Br)no4)C3C2=O)cc1F (stereo not drawn)	1010
CC1Oc2ccc(-c3csc(NC(=O)c4cccc(Br)c4)n3)cc2N(C)C1=O (stereo not drawn)	960
CSc1cccc(NC(=O)N2CCCC(C)(C(=O)NCc3ccc(C)cc3)C2)c1 (stereo not drawn)	989
CCOc1ccc(N(C)S(=O)(=O)c2ccsc2C(=O)NCc2cccc(OCC)c2)cc1	1160
CCOc1ccc(-c2noc(CSc3nccn3-c3ccccc3)n2)cc1OC	856
Cc1ccc(-n2c(=O)n(CC(=O)NCCCN3CCOCC3)c3cccnc32)cc1	591
Cc1cc(=O)n(CC(=O)N2CCN(c3ccc(F)cc3)CC2)c(N2CCc3ccccc3C2)n1	799
O=C(Nc1cnc(N2CCCCCC2)nc1)c1ccc(Br)o1	952

---

TEST_METHOD_NOTES: gradient 5% acetonitrile 3 min, to 50% in 2 min, to 85% in 15 min, held 3 min, 100 µL/min
MEASUREMENT_CONTEXT: column: Zorbax Extend-C18 2.1 x 50 mm; eluents: water / acetonitrile, 0.1% formic acid
MEASURED_ENDPOINT: RP-LC retention time (s)

MOLECULE	READOUT_VALUE
COc1ccc(CC(=O)NCC(=O)Nc2nc3ccccc3[nH]2)cc1Cl	636
O=C(NC1CCCC1)c1nc(-c2cn(-c3ccc(Cl)cc3)nn2)no1	837
CCCN1CCn2cc(S(=O)(=O)Nc3cccc(C)c3)cc2C1=O	777
O=C(NCc1cccs1)C1CCCN(c2nc3ccsc3c(=O)n2Cc2ccc(F)cc2)C1 (stereo not drawn)	899
O=C(NCC1CCCO1)c1cn(-c2ccc(NC(=O)C3CC3)cn2)cn1 (stereo not drawn)	633
O=C1N=C(N2CCN(Cc3ccc(F)cc3)CC2)S/C1=C\c1cccc(O)c1	585
CSc1ccc(CNC(=O)CN2C(=O)C3CCCCN3c3ccc(C(=O)N4CCCC4)cc32)cc1 (stereo not drawn)	850
O=C(Nc1cnc(N2CCC(N3CCCCC3)CC2)c(C(=O)O)c1)c1ccc(Br)cc1	637
Cc1noc([C@@H]2CN(Cc3ccccc3C(F)(F)F)C[C@H]2CO)n1	604
Cc1cc(C)cc(NC(=O)Cn2nc(N3CCCCCC3)c3ccccc3c2=O)c1	1110
Cc1ccn2c(NC(=O)COc3ccc(Cl)cc3Cl)c(-c3ccc(F)cc3)nc2c1	804
O=C1CC(c2nc(-c3cccc(Cl)c3)no2)CN1c1ccc2c(c1)OCO2 (stereo not drawn)	1030
Cc1ccccc1-c1cn2ccn(-c3cccc(Cl)c3)c(=O)c2n1	883
COc1ccc(CN2CCC(NC(=O)C3(c4ccccc4)CC3)C2)cn1 (stereo not drawn)	639
COc1ccc(-c2ccc(=O)n(CCNC(=O)NC3CCCCC3)n2)cc1	681
Cc1ccc(-c2cc(C(=O)N3CCN(C)CC3)[nH]n2)cc1C	603
Cc1ccc(-c2cc3c4nnc(SCC(=O)NC5CCCCC5)n4ccn3n2)cc1C	978
O=C(NCCc1csc(C2CCN(C(=O)C3CCCCC3)CC2)n1)C1CC1	734
Cn1cccc1-c1cc2n(n1)CCC(=O)N2CCCC(=O)NCCCc1ccccc1	833
COc1ccc(Cl)cc1NS(=O)(=O)c1cc2n(c1)CCCN(C)C2=O	724
CCOC(=O)C1=C(CN2CCN(C3CCCCC3)CC2)NC(=O)NC1c1ccc(OC)cc1 (stereo not drawn)	656
COC(=O)c1ccc(Cn2cnc3c(-c4cccc(F)c4)csc3c2=O)o1	957
CC(C)N1C(=O)c2cccnc2Sc2cc(NC(=O)c3c(F)cccc3F)ccc21	865
Fc1ccc(Cc2nc(-c3ccn4cnnc4c3)no2)cc1	764
O=C(Nc1ccccc1Cl)C(=O)c1cn(CC(=O)N2CCOCC2)c2ccccc12	1040
COc1cc2nccc(Oc3ccc(NC(=O)NC4CC4)c(Cl)c3)c2cc1C(N)=O	633
Cc1cc2c(cc1NC(=O)C1CCC(C)CC1)n(C)c(=O)c(=O)n2C (stereo not drawn)	733
O=C(Cc1cccn1-c1ccc(F)cc1)NCc1ccc(F)cc1	922
COc1ccc2c(c1)C1(CCN(C(=O)c3ccccc3Cl)C1)C(=O)N2 (stereo not drawn)	708
Cn1cc(C(=O)NCCCc2ccccc2)c(S(=O)(=O)N2CCSCC2)n1	944
COc1ccc(CCNC(=O)CSc2cc(N3CCC(C(=O)NC4CC4)CC3)ncn2)cc1OC	624
CCS(=O)(=O)N1CCCc2cc(C(=O)NCc3ccc4c(c3)OCO4)ccc21	832
O=C(NC1CC1)c1nc(C(=O)N2CCN(C3CCCCC3)CC2)cs1	601
